system: Mus musculus; experiment: Toxicity in po dosed Mus musculus (mouse); assay type: organism-based; design: unit not given here; conditions: in vivo
Could you mark each record Met if its logLD50 falls strictly under 2, and Not met if it equals or exceeds it?

Use the examples below as a reference point.
[[record]]
molecule = "CCN1C[C@]2(COC)CC[C@H](O)[C@]34C1[C@@](O)([C@@H](OC)[C@H]23)[C@@]1(O)C[C@H](OC)[C@H]2C[C@@H]4[C@@H]1[C@H]2OC"
assigned_category = "Not met"

[[record]]
molecule = "Br.COC[C@@]12CC[C@H](OC)[C@]34C([C@@H]([C@H](OC)[C@H]13)[C@]1(OC(C)=O)[C@H]3[C@@H](OC(=O)c5ccccc5)[C@](O)(C[C@H]34)[C@@H](OC)[C@@H]1O)N(C)C2"
assigned_category = "Met"

[[record]]
molecule = "CCN1C[C@]2(O)CC[C@H](OC)[C@]34C1[C@@H](C[C@H]23)[C@@]1(O)C[C@H](OC)[C@H]2C[C@@H]4[C@]1(O)[C@H]2OC"
assigned_category = "Not met"

[[record]]
molecule = "CCN1C[C@@]2(COC)[C@H]3[C@@H](OC)[C@@H]4C1[C@]3([C@@H](OC)C[C@H]2OC(C)=O)[C@@H]1C[C@]2(O)[C@@H](OC)C[C@@]4(OC(C)=O)[C@H]1[C@H]2OC(=O)c1ccccc1"
assigned_category = "Not met"

[[record]]
molecule = "Br.COC[C@@]12CC[C@H](OC)[C@]34C([C@@H]([C@H](OC)[C@H]13)[C@]1(O)[C@H]3[C@@H](OC(=O)c5ccccc5)[C@](O)(C[C@H]34)[C@@H](OC)[C@@H]1O)N(C)C2"
assigned_category = "Met"

[[record]]
molecule = "CCN1C[C@@]2(COC)[C@H]3[C@@H](OC)[C@@H]4C1[C@]3([C@@H](OC)C[C@H]2OC(C)=O)[C@@H]1C[C@@]2(O)[C@H](OC(=O)c3ccccc3)[C@@H]1[C@]4(OC(C)=O)[C@@H](O)[C@@H]2OC"
assigned_category = "Met"


Please check: logLD50 for COC[C@@]12CC[C@H](OC)[C@]34C([C@@H]([C@H](OC)[C@H]13)[C@]1(OC(C)=O)[C@H]3[C@@H](OC(=O)c5ccccc5)[C@](O)(C[C@H]34)[C@@H](OC)[C@@H]1O)N(C)C2 , strictly under 2 or not?
Met

What do we get for CCN1C[C@]2(C)CC[C@H](O)[C@]34C1[C@@H](C[C@H]23)[C@@]1(O)C[C@H](OC)[C@H]2C[C@@H]4[C@@H]1[C@H]2O ?
Met

For CCN1C[C@]2(COC)[C@H](O)C[C@H](OC)[C@]34C1[C@@H]([C@H](OC)[C@H]23)[C@@]1(OC(C)=O)C[C@H](OC)[C@@]2(O)C[C@@H]4[C@@H]1[C@H]2OC(=O)c1ccccc1 then?
Met

How about this molecule: CCN1C[C@@]2(COC)[C@H]3[C@@H](OC)[C@@H]4C1[C@]3([C@@H](OC)C[C@H]2OC(C)=O)[C@@H]1C[C@]2(OC(C)=O)[C@@H](OC)C[C@@]4(OC(C)=O)[C@H]1[C@H]2OC(C)=O
Not met

CCN1C[C@]2(COC)[C@H](O)C[C@H](OC)[C@]34C1[C@@H]([C@H](OC)[C@H]23)[C@]1(OC(C)=O)[C@H]2[C@@H](OC(=O)c3ccccc3)[C@](O)(C[C@H]24)[C@@H](OC)[C@@H]1O (stereo in doubt; 12) , same question.
Met

Then what about the molecule Br.CCN1C[C@]2(OC(=O)c3ccccc3NC(C)=O)CC[C@H](OC)[C@]34C1[C@@H](C[C@H]23)[C@@]1(O)C[C@H](OC)[C@H]2C[C@@H]4[C@]1(O)[C@H]2OC ?
Met

Also Br.COC[C@]12CN(C)C3[C@H]4[C@H](OC)[C@H]1[C@@]3([C@@H](OC)C[C@H]2O)[C@@H]1C[C@@]2(O)[C@H](OC(=O)c3ccccc3)[C@@H]1[C@]4(OC(C)=O)[C@@H](O)[C@@H]2OC ?
Met
